molecules and their reported zone of inhibition at 100 µg/mL
# Tested on: Penicillium chrysogenum
# protocol-summary: Antifungal activity against Penicillium chrysogenum at 100 ug/ml after 48 hrs by agar well diffusion method
# Format: functional
# cond: read-out: DIZ
measured-quantity: zone of inhibition at 100 µg/mL (mm)

molecule | tested-target | value-units | observed-measurement
Cc1ccc(NS(=O)(=O)Cc2nnc(CS(=O)(=O)c3c[nH]nc3S(=O)(=O)c3ccc(C)cc3)n2N)cc1 | Penicillium chrysogenum | mm | 18
Nn1c(CS(=O)(=O)/C=C/S(=O)(=O)c2ccccc2)nnc1CS(=O)(=O)Nc1ccccc1 | Penicillium chrysogenum | mm | 26
Cc1ccc(NS(=O)(=O)Cc2nnc(CS(=O)(=O)/C=C/S(=O)(=O)c3ccc(C)cc3)s2)cc1 | Penicillium chrysogenum | mm | 23
Cc1ccc(NS(=O)(=O)Cc2nnc(CS(=O)(=O)C3CNN=C3S(=O)(=O)c3ccc(C)cc3)n2N)cc1 (configuration not stated) | Penicillium chrysogenum | mm | 18
Cc1ccc(NS(=O)(=O)Cc2nnc(CS(=O)(=O)c3c[nH]cc3S(=O)(=O)c3ccc(C)cc3)s2)cc1 | Penicillium chrysogenum | mm | 19
Nn1c(CS(=O)(=O)/C=C/S(=O)(=O)c2ccc(Cl)cc2)nnc1CS(=O)(=O)Nc1ccc(Cl)cc1 | Penicillium chrysogenum | mm | 38
CC(=O)N1CCN(c2ccc(OCC3COC(Cn4ccnc4)(c4ccc(Cl)cc4Cl)O3)cc2)CC1 (configuration not stated) | Penicillium chrysogenum | mm | 38
O=S(=O)(Cc1nnc(CS(=O)(=O)c2c[nH]nc2S(=O)(=O)c2ccccc2)o1)Nc1ccccc1 | Penicillium chrysogenum | mm | 15
O=S(=O)(Cc1nnc(CS(=O)(=O)c2c[nH]nc2S(=O)(=O)c2ccc(Cl)cc2)s1)Nc1ccc(Cl)cc1 | Penicillium chrysogenum | mm | 34
O=S(=O)(/C=C/S(=O)(=O)c1ccccc1)Cc1nnc(CS(=O)(=O)Nc2ccccc2)s1 | Penicillium chrysogenum | mm | 24
Nn1c(CS(=O)(=O)Nc2ccccc2)nnc1CS(=O)(=O)C1CNN=C1S(=O)(=O)c1ccccc1 (configuration not stated) | Penicillium chrysogenum | mm | 17
O=S(=O)(Cc1nnc(CS(=O)(=O)c2c[nH]cc2S(=O)(=O)c2ccccc2)s1)Nc1ccccc1 | Penicillium chrysogenum | mm | 20
Nn1c(CS(=O)(=O)Nc2ccc(Cl)cc2)nnc1CS(=O)(=O)c1c[nH]nc1S(=O)(=O)c1ccc(Cl)cc1 | Penicillium chrysogenum | mm | 37
O=S(=O)(Cc1nnc(CS(=O)(=O)c2c[nH]nc2S(=O)(=O)c2ccccc2)s1)Nc1ccccc1 | Penicillium chrysogenum | mm | 19
O=S(=O)(Cc1nnc(CS(=O)(=O)c2c[nH]cc2S(=O)(=O)c2ccc(Cl)cc2)o1)Nc1ccc(Cl)cc1 | Penicillium chrysogenum | mm | 26
Nn1c(CS(=O)(=O)Nc2ccc(Cl)cc2)nnc1CS(=O)(=O)c1c[nH]cc1S(=O)(=O)c1ccc(Cl)cc1 | Penicillium chrysogenum | mm | 36
O=S(=O)(Cc1nnc(CS(=O)(=O)C2CNN=C2S(=O)(=O)c2ccc(Cl)cc2)o1)Nc1ccc(Cl)cc1 (configuration not stated) | Penicillium chrysogenum | mm | 24

----------
# System: Pseudomonas aeruginosa
# protocol-summary: Antibacterial activity against Pseudomonas aeruginosa at 100 ug/ml after 24 hrs by agar well diffusion method
# Format: functional
The source made the active and inactive calls. The calls are words filed in the database; no cut-off is given here.

compound | diameter of the inhibition zone (DIZ)
O=S(=O)(Cc1nnc(CS(=O)(=O)c2c[nH]cc2S(=O)(=O)c2ccccc2)o1)Nc1ccccc1 | inactive
Cc1ccc(NS(=O)(=O)Cc2nnc(CS(=O)(=O)c3c[nH]cc3S(=O)(=O)c3ccc(C)cc3)o2)cc1 | inactive
Cc1ccc(NS(=O)(=O)Cc2nnc(CS(=O)(=O)C3CNN=C3S(=O)(=O)c3ccc(C)cc3)o2)cc1 (centres undefined) | inactive
O=S(=O)(Cc1nnc(CS(=O)(=O)C2CNN=C2S(=O)(=O)c2ccccc2)o1)Nc1ccccc1 (centres undefined) | inactive

Just for reference, ChEMBL document CHEMBL2040768 is where these values come from.
